meta.source: patent US20250250357A1

Biological target: T1, human MSLN-FL-his protein (human, UniProt Q13421 296-580)
T1 construct: made in HEK293E cells, purified on nickel column; also called hMSLN-FL-his; human MSLN full-length protein; not shown: His tag
T1 sequence (Q13421 other isoform, or with tags, fused parts or gaps): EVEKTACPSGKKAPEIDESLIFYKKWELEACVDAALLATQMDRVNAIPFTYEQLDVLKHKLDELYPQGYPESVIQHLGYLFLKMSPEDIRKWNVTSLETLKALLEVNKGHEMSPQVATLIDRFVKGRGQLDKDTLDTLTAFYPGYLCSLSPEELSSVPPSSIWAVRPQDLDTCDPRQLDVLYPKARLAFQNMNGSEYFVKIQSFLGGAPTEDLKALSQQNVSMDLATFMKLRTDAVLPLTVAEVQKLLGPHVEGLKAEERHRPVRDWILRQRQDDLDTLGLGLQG
Assay: competitive ELISA; row F6-76.1; note: test concentration or dose not given here
Readout: competition rate

[
  {
    "Binder": "S009-F4-94.15 (antibody, human IgG1, kappa, V domains shown, human-murine chimeric antibody, human IgG1/kappa constant regions) VH: QVQLHQPGAELVRPGSSVKLSCKASGYTFTSYWVHWVQQRPRQGLEWIGNIDPSDSEIHYNQKFKDKATLTVDKSSSTAYIHLSRLTSEDSAIYYCVRGGVPWFAYWGQGTLVTVSA VL: QIVLTQSPAIMSASPGEKVTLTCSASSSVSSTYLYWFQQKPGSSPKVWIYSTSNLASGVPARFSGSGSGTSYSLTISSMEAEDAASYFCHQWISYPYTFGGGTKLEIKR",
    "Recorded Result": "99%"
  },
  {
    "Binder": "S009-F2-56.12 (antibody, human IgG1, kappa, V domains shown, human-murine chimeric antibody, human IgG1/kappa constant regions) VH: DVQLQESGPGMVKPSQSLSLTCTVTGYSITSGYDWHWIRHFPGNKLEWMGYISYSGSTNYNPSLKSRISITHDTSKNHFFLKLKSVTTEDTATYYCARGTGPDYWGQGTTLTVSS VL: DIVMTQSQKFMSTSVGDRVSITCKASQNVRTAVAWYQQKPGQSPKALIHLPSNRHTGVPDRFTGSGSGTDFTLTISNVQSEDLADYFCLQHWNYPLTFGGGTKLEIKR",
    "Recorded Result": "93%"
  },
  {
    "Binder": "S009-F6-62.5 (antibody, human IgG1, kappa, V domains shown, human-murine chimeric antibody, human IgG1/kappa constant regions) VH: QVQLQQPGTELVKPGASVKLSCRASGYTFTAYWMHWVKQRPGQGLEWIGNINPSNGGTDFNEKFKSKATLTVDKSSSTAYMQLSSLTSEDSAVYYCARGRGYFDVWGTGTTVTVSS VL: DILLTQSPAILSVSPGERVSFSCRASKNIGTSIHWYQQRTNGSPRLLIKYASESISGIPSRFSGSGSGTDFTLNINSVESEDIADYYCQQSNSWPTLTFGAGTKLELKR",
    "Recorded Result": "57%"
  },
  {
    "Binder": "S009-F6-76.1 (antibody, human IgG1, kappa, V domains shown, human-murine chimeric antibody, human IgG1/kappa constant regions) VH: QVQLQQSGPELVKPGASVKISCKASGYTFTDYYINWVKQRPGQGLEWIGWIFPGRGSTFYYEKFKGKATLTVDKSSSTAYMLLSSLTSEDSAVYFCARRGDSAGYEDLDYWGQGTSVTVSS VL: NIVMTQSPKFMSMSVGERVTLSCKASENVVTYVSWYQQKPKQSPKLLIYGASKRYTGVPDRFTGSGSATDFTLTISSVQAEDLGDYHCGQSYSYPYTFGGGTKLEIKR",
    "Recorded Result": "98%"
  }
]
